# Test system: P. vulgatus RND KO;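 further: active when median AUC fell below 0.1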
# MEASUREMENT_NOTES: growth AUC normalised to DMSO control (median) (fraction of control); higher = less growth inhibition, active = hit call of the paper
# SETTINGS: 20 µM
Where a name gives a salt, the structure may show the parent alone.
Listed below: growth AUC normalised to DMSO control values for each entry.
MEASUREMENT_KIND: growth AUC normalised to DMSO control

[
  {
    "MOLECULE": "COCCOC(=O)C1=C(C)NC(C)=C(C(=O)OC/C=C/c2ccccc2)C1c1cccc([N+](=O)[O-])c1 (stereo unspecified)",
    "MEASUREMENT_KIND": "growth AUC normalised to DMSO control",
    "OBSERVED": 0.989
  },
  {
    "MOLECULE": "CCN(CC)C(=O)c1ccc(O)c(OC)c1",
    "MEASUREMENT_KIND": "growth AUC normalised to DMSO control",
    "OBSERVED": 1.04
  },
  {
    "MOLECULE": "CCC[C@@H]1C[C@@H](C(=O)N[C@@H]([C@H]2O[C@H](SC)[C@H](O)[C@@H](O)[C@H]2O)[C@H](C)Cl)N(C)C1 [Clindamycin hydrochloride]",
    "MEASUREMENT_KIND": "growth AUC normalised to DMSO control",
    "OBSERVED": 0.0135
  },
  {
    "MOLECULE": "Cc1nc2n(c(=O)c1CCN1CCC(c3noc4cc(F)ccc34)CC1)CCCC2O (stereo unspecified)",
    "MEASUREMENT_KIND": "growth AUC normalised to DMSO control",
    "OBSERVED": 0.976
  },
  {
    "MOLECULE": "OC(CCN1CCCCC1)(c1ccccc1)C1CC2C=CC1C2 (stereo unspecified) [Biperiden hydrochloride]",
    "MEASUREMENT_KIND": "growth AUC normalised to DMSO control",
    "OBSERVED": 0.994
  },
  {
    "MOLECULE": "CC(=O)OCC(=O)[C@@]1(O)CC[C@H]2[C@@H]3CCC4=CC(=O)C=C[C@]4(C)[C@@]3(F)[C@@H](O)C[C@@]21C [Isoflupredone acetate]",
    "MEASUREMENT_KIND": "growth AUC normalised to DMSO control",
    "OBSERVED": 1.03
  },
  {
    "MOLECULE": "CO[C@@]1(NC(=O)CSCC#N)C(=O)N2C(C(=O)O)=C(CSc3nnnn3C)CS[C@@H]21 [Cefmetazole sodium salt]",
    "MEASUREMENT_KIND": "growth AUC normalised to DMSO control",
    "OBSERVED": 0.0391
  },
  {
    "MOLECULE": "NC1CCN(c2nc3c(cc2F)c(=O)c(C(=O)O)cn3-c2ccc(F)cc2F)C1 (stereo unspecified) [Tosufloxacin hydrochloride]",
    "MEASUREMENT_KIND": "growth AUC normalised to DMSO control",
    "OBSERVED": 0.0157
  },
  {
    "MOLECULE": "CCCCC(C)(O)C/C=C/[C@H]1[C@H](O)CC(=O)[C@@H]1CCCCCCC(=O)OC (mixture of isomers)",
    "MEASUREMENT_KIND": "growth AUC normalised to DMSO control",
    "OBSERVED": 0.996
  },
  {
    "MOLECULE": "COc1ccc(CNc2nc(N3CCC[C@H]3CO)ncc2C(=O)NCc2ncccn2)cc1Cl",
    "MEASUREMENT_KIND": "growth AUC normalised to DMSO control",
    "OBSERVED": 1
  },
  {
    "MOLECULE": "Oc1c(I)cc(Cl)c2cccnc12",
    "MEASUREMENT_KIND": "growth AUC normalised to DMSO control",
    "OBSERVED": 0.134
  },
  {
    "MOLECULE": "O=C(CCCN1CCC(O)(c2ccc(Cl)cc2)CC1)c1ccc(F)cc1",
    "MEASUREMENT_KIND": "growth AUC normalised to DMSO control",
    "OBSERVED": 0.965
  },
  {
    "MOLECULE": "COC(=O)Nc1nc2cc(C(=O)c3cccs3)ccc2[nH]1",
    "MEASUREMENT_KIND": "growth AUC normalised to DMSO control",
    "OBSERVED": 1.01
  },
  {
    "MOLECULE": "CN(C)CCOC(C)(c1ccccc1)c1ccccn1 (stereo unspecified) [Doxylamine succinate]",
    "MEASUREMENT_KIND": "growth AUC normalised to DMSO control",
    "OBSERVED": 0.981
  },
  {
    "MOLECULE": "CC(=O)SCC(Cc1ccccc1)C(=O)NCC(=O)OCc1ccccc1 (stereo unspecified)",
    "MEASUREMENT_KIND": "growth AUC normalised to DMSO control",
    "OBSERVED": 1.06
  },
  {
    "MOLECULE": "Cc1cc(/C=C/c2ccc3cc(N(C)C)ccc3[n+]2C)c(C)n1-c1ccccc1 [Pyrvinium pamoate]",
    "MEASUREMENT_KIND": "growth AUC normalised to DMSO control",
    "OBSERVED": 1.01
  }
]
